Data provenance is ChEMBL document CHEMBL5058577.

Test system: Fibroblast
TEST METHOD NOTES: Multiplex assay against human fibroblast
Type: toxicity, cell-based
CONDITION SET: 48 h, 10 µM, compound concentration 10 uM, replicate 1
RECORDED METRIC: Population Mitotic Cells (%)
Your answer is read as %, so omit the unit and give the number.

query: What Population Mitotic Cells (%) value was documented for this molecule, Cc1ccc(/C(=C\CN2CCCC2)c2ccccn2)cc1 ?
result: 61

query: What Population Mitotic Cells (%) value was documented for this molecule, COc1ccc2c(c1)C(C(=O)N(Cc1ccc(N(C)C)cc1)c1ccc(C(C)C)cc1)CCC2.Cl (stereo not given) ?
result: 28

query: What Population Mitotic Cells (%) value was documented for this molecule, CCCn1c(=O)c2[nH]c(C3CCCC3)nc2n(CCC)c1=O ?
result: 42

query: What Population Mitotic Cells (%) value was documented for this molecule, Oc1c(CN2CCN(c3ccccn3)CC2)cc(Cl)c2cccnc12 ?
result: 14

query: What Population Mitotic Cells (%) value was documented for this molecule, CC(C)(C)c1ccc(S(=O)(=O)Nc2ccc(Cl)cc2C(=O)c2cc[n+]([O-])cc2)cc1 ?
result: 37

query: What Population Mitotic Cells (%) value was documented for this molecule, COc1c(C)cc(NC(=O)c2nn(Cc3ccc(F)cc3)c3c2CN(C(=O)c2ccc[nH]2)C[C@]3(C)C(N)=O)cc1C ?
result: 39

query: What Population Mitotic Cells (%) value was documented for this molecule, COc1cc(C(=O)N(CCCc2ccccc2)Cc2ccc(CC(=O)O)cc2)cc(OC)c1C ?
result: 22

query: What Population Mitotic Cells (%) value was documented for this molecule, CCOc1c2c(c(OCC)c3ncccc13)CN(c1ccc(CS(=O)(=O)NC(=O)Cc3ccccc3OC)cc1C)C2=O ?
result: 28

query: What Population Mitotic Cells (%) value was documented for this molecule, Cc1ccccc1C(=O)Nc1ccc(C(=O)N2CCCC(N(C)C)c3ccccc32)cc1.Cl (stereo not given) ?
result: 8

query: What Population Mitotic Cells (%) value was documented for this molecule, O=C(O)c1cc2ccccc2c(Cc2c(O)c(C(=O)O)cc3ccccc23)c1O ?
result: 50
